biological target: human type 3 17β-hydroxysteroid dehydrogenase (Homo sapiens); construct: expressed in transfected cells; host or cells: 293 cells, transient transfection; microsomal fraction (100 000×g pellet); assay: Enzymatic assay for type 3 17β-HSD; format: biochemical; settings: 3.10^−6 M inhibitor
Sequence (P37058 whole entry): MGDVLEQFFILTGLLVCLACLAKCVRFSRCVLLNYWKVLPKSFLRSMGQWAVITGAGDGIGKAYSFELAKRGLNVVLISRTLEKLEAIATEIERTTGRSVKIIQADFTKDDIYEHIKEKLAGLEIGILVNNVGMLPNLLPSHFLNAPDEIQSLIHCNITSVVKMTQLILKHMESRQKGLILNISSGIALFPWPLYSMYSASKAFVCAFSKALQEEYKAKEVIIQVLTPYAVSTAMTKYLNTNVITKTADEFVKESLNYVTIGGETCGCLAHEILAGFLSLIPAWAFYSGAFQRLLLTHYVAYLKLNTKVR
metric: % of Inhibition of the Type 3 17β-HSD Activity (%)

[[record]]
compound = "COCSc1ccc2c(c1)CC[C@@H]1[C@@H]2CC[C@]2(C)C(=O)CC[C@@H]12 [EM-1064]"
test_value = 92

[[record]]
compound = "COCOc1ccc2c(c1)CC[C@@H]1[C@@H]2CC[C@]2(C)C(=O)CC[C@@H]12 [EM-1070]"
test_value = 90

[[record]]
compound = "CCCCOc1ccc2c(c1)CC[C@@H]1[C@@H]2CC[C@]2(C)C(=O)CC[C@@H]12 [EM-1074, 3-Butyloxy-1,3,5(10)-estratrien-17-one]"
test_value = 92

[[record]]
compound = "CCOCCOc1ccc2c(c1)CC[C@@H]1[C@@H]2CC[C@]2(C)C(=O)CC[C@@H]12 [EM-1071]"
test_value = 91


###

test system: Shionogi mouse mammary carcinoma cells; test: Antiandrogenic activity: inhibition of DHT-induced proliferation of Shionogi cells; assay type: cell-based; conditions: Table 4′; DHT-induced proliferation, E^−6 (10^−6 M)
metric: Antiandrogenic Activity Shionogi, DHT E^−6 (%)

[[record]]
compound = "COc1ccc2c(c1)C(=O)CC1C3CCC4(CCC(C)(C)C(=O)O4)C3(C)CCC21O (centres unmarked)"
units = "%"
test_value = "−27"

[[record]]
compound = "CN(C)CCOc1ccc2c(c1)CCC1C2CCC2(C)C1CCC21CCC(C)(C)C(=O)O1 (centres unmarked)"
units = "%"
test_value = "−103"

[[record]]
compound = "C[C@]12CCC3c4ccc(O)cc4CCC3C1CC[C@@]21CCCC(=O)O1 (some centres unmarked)"
units = "%"
test_value = "−95"

[[record]]
compound = "CCC1(CC)CC[C@@]2(CC[C@H]3[C@@H]4CCc5cc(OC)ccc5[C@H]4CC[C@@]32C)OC1=O"
units = "%"
test_value = "−64"

[[record]]
compound = "CC1(C)CCC2(CCC3C4CCc5cc(C(=O)OCc6ccccc6)ccc5C4CCC32C)OC1=O (centres unmarked)"
units = "%"
test_value = "−37"

[[record]]
compound = "CC1(C)CCC2(CCC3C4CCc5c(cc(Cl)c(OS(C)(=O)=O)c5Cl)C4CCC32C)OC1=O (centres unmarked)"
units = "%"
test_value = "−75"

[[record]]
compound = "COc1c(Br)cc2c(c1Br)CCC1C2CCC2(C)C1CCC21CCC(C)(C)C(=O)O1 (centres unmarked)"
units = "%"
test_value = "−61"

[[record]]
compound = "COCCOc1cc2c(cc1C(=O)O)C1CCC3(C)C(CCC34CCC(C)(C)C(=O)O4)C1CC2 (centres unmarked)"
units = "%"
test_value = 0

[[record]]
compound = "COc1cc2c(cc1C)C1CCC3(C)C(CCC34CCC(C)(C)C(=O)O4)C1CC2 (centres unmarked)"
units = "%"
test_value = "−60"

[[record]]
compound = "COCCOc1ccc2c(c1)C(=O)CC1C2CCC2(C)C1CCC21CCC(C)(C)C(=O)O1 (centres unmarked)"
units = "%"
test_value = "−94"

[[record]]
compound = "CC1(C)CCC2(CCC3C4CCc5ccccc5C4CCC32C)OC1=O (centres unmarked)"
units = "%"
test_value = "−11"

[[record]]
compound = "COC(=O)C1CCC2(CCC3C4CCc5cc(O)ccc5C4CCC32C)OC1=O (centres unmarked)"
units = "%"
test_value = "−40"

[[record]]
compound = "COCCOc1cc2c(cc1C(N)=O)C1CC[C@@]3(C)C(CC[C@@]34CCC(C)(C)C(=O)O4)C1CC2 (some centres unmarked)"
units = "%"
test_value = "−58"

[[record]]
compound = "COc1cc2c(cc1C(F)(F)F)C1CCC3(C)C(CCC34CCC(C)(C)C(=O)O4)C1CC2 (centres unmarked)"
units = "%"
test_value = "−105"

[[record]]
compound = "CC1(C)CCC2(CCC3C4CCc5cc(O)c(C(N)=O)cc5C4CCC32C)OC1=O (centres unmarked)"
units = "%"
test_value = "−51"

[[record]]
compound = "COc1ccc2c(c1)C(=O)CC1C2CC[C@@]2(C)C1CC[C@@]21CCC(C)(C)C(=O)O1 (some centres unmarked)"
units = "%"
test_value = "−23"

[[record]]
compound = "COCCOc1cc2c(cc1C(=O)N(C)C)C1CCC3(C)C(CCC34CCC(C)(C)C(=O)O4)C1CC2 (centres unmarked)"
units = "%"
test_value = "−44"

